B1: F1*; the commonest letter at each place (parent)
chain: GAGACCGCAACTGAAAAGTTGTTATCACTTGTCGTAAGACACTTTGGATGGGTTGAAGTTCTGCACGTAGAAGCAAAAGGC

# Variants of: B1
# TEST_DETAILS: fraction ligated after 30 min (ligated reads / total reads); higher = more ligase activity
# CONDITION_LABEL: with F1*sub RNA substrate (template-directed ligation), 42 °C
Recorded fraction ligated values for a group of variants are listed next.
MEASURE_NAME: fraction ligated

INSERT INTO measurements (variant_spec, recorded_measurement) VALUES
  ('A48C A56G', 0.283),
  ('G58C', 0.767),
  ('A41T A48T', 0.345);

Data provenance: the supplement of paper PMC6755084
